organism: Cavia porcellus; test: Decrease in developed tension of the left atrium of guinea pig expressed as the negative inotropy.; type: functional, Cardiac atrium; set-up: concentration or dose not given beside the values
Each item that follows carries a reported Activity.
Number plus unit, in that order.

Guide cases for Activity, answers given:
1) COc1ccc(C(C#N)(CC#CCNCc2c3ccccc3cc3ccccc23)C(C)C)cc1OC.Cl (configuration not stated); 74%
2) COc1ccc(C(C#N)(CC#CCN(C)Cc2c3ccccc3cc3ccccc23)C(C)C)cc1OC.Cl (configuration not stated); 65%
3) COc1ccc(C(C#N)(CC#CCNCC(c2ccccc2)c2ccccc2)C(C)C)cc1OC.Cl (configuration not stated); 61%

Query block: Please give the measured Activity for this compound: `CN(CCCC(C#N)(c1ccccc1)c1ccccc1)Cc1c2ccccc2cc2ccccc12.Cl`
Result block: 70%

Query block: Query (compound): COc1ccc(C(C#N)(CC#CCNC(c2ccccc2)c2ccccc2)C(C)C)cc1OC.Cl (configuration not stated) ; field requested: Activity
Result block: 69%

Query block: // Activity lookup, key: C=CCNc1nc(NCC=C)nc(N2CCC(NCC#CCC(C#N)(c3ccc(OC)c(OC)c3)C(C)C)CC2)n1.Cl (configuration not stated)
Result block: 67%

Query block: // Activity lookup, key: COc1ccc(C(C#N)(CC#CCN(C)C23CC4CC(CC(C4)C2)C3)C(C)C)cc1OC.Cl (configuration not stated)
Result block: 66%
